System: CCK-81 (Colorectal Carcinoma)
Test: combination Emax (second highest fraction inhibited in the dose matrix, 72 h); higher = more inhibition; extreme values may be limits of the assay
reported.endpoint: combination Emax

Examples from the recorded data:
Query: Would you mind telling me what combination Emax value was observed for COc1nnc2ccc(N3CCC(c4ccc(OCCN5CCN(C)C(=O)[C@H]5C)cc4)CC3)nn12 [AZD5153] + Cc1c2c(nn1C)CSCc1cc(n(C)n1)CSc1cc(c3ccccc3c1)OCCCc1c(C(=O)O)n(C)c3c-2c(Cl)ccc13 [AZD5991] (first compound max 1 µM, 7x7, partner max 1 µM) ?
Response: 0.916

Query: Would you mind telling me what combination Emax value was observed for C=CCn1c(=O)c2cnc(Nc3ccc(N4CCN(C)CC4)cc3)nc2n1-c1cccc(C(C)(C)O)n1 [AZD1775] + O=C(c1cc(Cc2n[nH]c(=O)c3ccccc23)ccc1F)N1CCN(C(=O)C2CC2)CC1 [Olaparib] (first compound max 1 µM, partner max 10 µM) ?
Response: 0.894

Please turn your attention to the following entry.
Query: Would you mind telling me what combination Emax value was observed for Cc1c2c(nn1C)CSCc1cc(n(C)n1)CSc1cc(c3ccccc3c1)OCCCc1c(C(=O)O)n(C)c3c-2c(Cl)ccc13 [AZD5991] + C=CCn1c(=O)c2cnc(Nc3ccc(N4CCN(C)CC4)cc3)nc2n1-c1cccc(C(C)(C)O)n1 [AZD1775] (first compound max 1 µM, partner max 1 µM) ?
Response: 0.928
